B1: library; a variant is named by its letters at N, in order (parent)
chain: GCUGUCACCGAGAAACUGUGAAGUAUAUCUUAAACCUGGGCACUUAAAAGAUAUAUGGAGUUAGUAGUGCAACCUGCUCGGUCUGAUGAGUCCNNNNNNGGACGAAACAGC

Variants of: B1
Test Method Notes: normalized RNA/DNA level without ligand (relative to sTRSVctl = 100) (log10 (% of sTRSVctl)); HEK293T; ligand: cyclic di-GMP (c-di-GMP-II aptamer); higher = less ribozyme self-cleavage, higher mRNA level
Recorded Conditions: reporter: mCherry (pCS4076), ligand present: no
Item-by-item account of normalized RNA/DNA level without ligand (log10)
Enter a number only.

AAAGGU :: 1.54
GCUCGU :: 1.69
CCCGAC :: 1.7
CUUUGC :: 1.79

Param item = CCGUAC ; retrieve measured normalized RNA/DNA level without ligand (log10).
1.62

// same read-out, input: UGACCC
1.8

For GCGGCA then?
1.82

Next variant: AUGCAC
1.71

What about this variant? GUGGUA
1.58

Moving on to the next variant: GAGUCG
1.83

Now this one: CUGACA
1.51
